Origin of measurements: patent US5214191A

Quick list: α-Chymotrypsin (I50)/HNE(I50) per entry.
# target-desc: alpha-chymotrypsin (α-CH) (Bos taurus, UniProt P00766)
# experiment-summary: Specificity determination, alpha-chymotrypsin, N-succinyl-ala-ala-pro-leu-pNA substrate
# Assay type: biochemical
# cond: ratio of I50's (α-CH/HNE)
Please give only the number in your answer, with no unit.

Past entries and their recorded results:
compound: CCC(C(=O)Oc1ccc(S(C)(=O)=O)cc1)c1ccccc1 (stereo not shown) [Compound 3]
α-Chymotrypsin (I50)/HNE(I50): 176.0

compound: CCC(C(=O)Oc1ccc(S(C)(=O)=O)cc1)c1ccc(OC)cc1 (stereo not shown) [Compound 37]
α-Chymotrypsin (I50)/HNE(I50): 106.2

compound: CCC(C(=O)Oc1ccc(S(C)(=O)=O)cc1)c1ccc2cc(OC)ccc2c1 (stereo not shown) [Compound 384]
α-Chymotrypsin (I50)/HNE(I50): 131.8

-- ask Give its α-Chymotrypsin (I50)/HNE(I50) value. Item: CC(C)(C)C(=O)Oc1ccc(S(C)(=O)=O)cc1 [Compound A, reference compound]
-- reply 146.10

====

# experiment-summary: PBS solubility
# Format: physicochemical
# cond: aqueous buffer
Quick list: solubility per entry.

molecule: CCC(C(=O)Oc1ccc([S+]([O-])CC(C)(C)C(=O)O)cc1)c1ccccc1 (stereo not drawn) [S(O)CH2 C(CH3)2 CO2 H]
solubility: ≥ 2000 µg/mL

-- ask Give its solubility value. Item: CCC(C(=O)Oc1ccc(S(=O)(=O)CC(C)(C)C(=O)O)cc1)c1ccccc1 (stereo not drawn) [S(O2)CH2 C(CH3)2 CO2 H]
-- reply ≥ 2000 µg/mL

-- ask Give its solubility value. Item: CCC(C(=O)Oc1ccc(SCC(C)(C)C(=O)O)cc1)c1ccccc1 (stereo not drawn) [SCH2 C(CH3)2 CO2 H]
-- reply ≥ 2000 µg/mL
